Values were extracted from ChEMBL document CHEMBL4145448.

experiment: Selectivity index, ratio of CC50 for human HepG2 cells in presence of 10% FBS to IC50 for CQ-sensitive GFP-fused Plasmodium falciparum D10; format: toxicity; conditions: read-out: Ratio IC50
Label y for high-side selectivity ratio (at or above 2) and n for low-side selectivity ratio (below it).

Examples from the recorded data:
>>> category_label("FC(F)(F)Oc1cccc2c1-c1ccccc1[I+]2")
"n"
>>> category_label("Fc1cccc2c1-c1cccc(Cl)c1[I+]2")
"y"
>>> category_label("Fc1cccc2c1-c1c(Cl)cccc1[I+]2")
"n"
>>> category_label("FC(F)(F)c1cccc2c1-c1ccccc1[I+]2")
"n"
>>> category_label("Clc1cccc2c1[I+]c1cccc(Cl)c1-2")
"n"

Q. // inclusive: selectivity ratio at least 2? input: Fc1cccc2c1-c1c(F)cccc1[I+]2
A. n

Q. Check the entry Cc1cccc2c1-c1cccc(Cl)c1[I+]2 : does selectivity ratio equal or exceed 2?
A. y

Q. Check if selectivity ratio >= 2 (inclusive). Item: COc1ccc(Cl)c2c1[I+]c1ccccc1-2
A. n

Q. Determine whether measured selectivity ratio meets or exceeds 2 for Cc1ccc(Cl)c2c1[I+]c1ccccc1-2
A. y
